Target: T1, human PVRIG-mFc protein (Acro, PVG-H5253) (human, UniProt Q6DKI7 41-171, limits assumed)
T1 construct: bought reagent; also called PVRIG-ECD-mFc
T1 sequence (looked up): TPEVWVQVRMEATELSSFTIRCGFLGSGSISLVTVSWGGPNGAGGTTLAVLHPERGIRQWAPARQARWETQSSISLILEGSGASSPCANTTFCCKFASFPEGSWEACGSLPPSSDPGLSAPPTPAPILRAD
Assay: competition FACS; blocked: human PVRIG-mFc binding to CHO-K1-CD112 cells
MEASURED ENDPOINT: IC50 (read off the curve)

• PVRIG-A43 (VHH, tested as VHH-hinge-CH2-CH3 (human IgG1-Fc); not shown: human IgG1 hinge-CH2-CH3) VHH: QVQLVESGGGLVQSGGSLRLSCAASGRTRSMYVMGWFRQAPGKEREFVGRIKWSGDTTYTSYADFVKGRFTLYGNQARNTVYLQMNSLKVEDTAVYYCAGRVVPLPSRQRDRYDYWGQGTQVTVSS = ~1 nM
• PVRIG-A105 (VHH, tested as VHH-hinge-CH2-CH3 (human IgG1-Fc); not shown: human IgG1 hinge-CH2-CH3) VHH: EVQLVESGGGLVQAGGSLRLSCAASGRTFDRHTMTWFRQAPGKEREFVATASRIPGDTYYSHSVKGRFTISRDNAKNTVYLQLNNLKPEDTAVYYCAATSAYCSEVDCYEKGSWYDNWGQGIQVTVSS = ~1 nM
• PVRIG-A11 (VHH, tested as VHH-hinge-CH2-CH3 (human IgG1-Fc); not shown: human IgG1 hinge-CH2-CH3) VHH: QLQLVESGGGLVQPGGSLRLSCAASGFTDDYYAIGWFRQAPGKEREGVSCISGSGGSTNYEDSVKGRFAISRDNAKNMVYLQMNDLKPEDTAVYYCAADPFWSAPCTGHNDRYFDVWGQGTLVTVSS = ~0.9 nM
• PVRIG-A75 (VHH, tested as VHH-hinge-CH2-CH3 (human IgG1-Fc); not shown: human IgG1 hinge-CH2-CH3) VHH: QLQLVESGGGLVQSGGSLRLSCAASGRTRSMYVMGWFRQAPGKEREFVGRIKWSGDTTYTSYADFVKGRFTLYGNQARNTVYLQMNSLKPEDTAVYSCAASKFPVSGVPEHYDYWGQGTQVTVSS = ~0.8 nM
• COM701-hIgG4 (antibody, V domains shown, anti-PVRIG positive control) VH: QVQLVQSGAEVKKPGASVKVSCKASGYTFTDYNINWVRQAPGQGLEWMGYIYPYIGGSGYAQKFQGRVTMTRDTSTSTVYMELSSLRSEDTAVYYCAREDKTARNAMDYWGQGTLVTVSS VL: DIQMTQSPSSLSASVGDRVTITCRVSENIYSNLAWYQQKPGKAPKLLIYEATNLAEGVPSRFSGSGSGTDFTLTISSLQPEDFATYYCQHFWGTPYTFGQGTKLEIK = ~0.8 nM
• PVRIG-A104 (VHH, tested as VHH-hinge-CH2-CH3 (human IgG1-Fc); not shown: human IgG1 hinge-CH2-CH3) VHH: EVQVVESGGGLVQAGGSLRLSCAASGRTRSMYVMGWFRQAPGKEREFVGRIKWSGDTTYTSYADFVKGRFTLYGNQARNTVYLQMNSLKPEDTAVYYCYRRSWTNTKLYWGKGIQVTVSS = ~1 nM
